Test: Absorption and emission spectra of the coumarin amino acid
Type: physicochemical
Details: phenolate form, at 360 nm; pH 7.4, 100 mM sodium phosphate buffer
measurementType: extinction coefficient (M⁻¹ cm⁻¹)
Express your answer in M⁻¹ cm⁻¹, writing the number without its unit.

Challenge: Please look up its extinction coefficient: N[C@@H](CCc1cc(=O)oc2cc(O)ccc12)C(=O)O [L-(7-hydroxycoumarin-4-yl)ethylglycine]
Response given: 17000
